Where do these numbers come from? They come from paper PMC11249646.

# ASSAYED TARGET: CIB1 and αIIb interaction (CIB1-GST : F-αIIb peptide) (Homo sapiens, UniProt Q99828)
# Construct: made in house; host or cells: BL-21 plus RIL cells (E. coli)
# Sequence (Q99828 whole entry): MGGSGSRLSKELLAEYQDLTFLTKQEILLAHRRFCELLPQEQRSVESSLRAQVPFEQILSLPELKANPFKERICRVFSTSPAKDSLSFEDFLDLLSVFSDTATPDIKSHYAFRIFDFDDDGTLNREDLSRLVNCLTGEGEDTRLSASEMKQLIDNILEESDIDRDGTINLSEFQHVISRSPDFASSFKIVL
# ASSAY TEXT: FP assay, 1536-well qHTS format (primary and confirmatory screen)
# Type: binding
# CONDITION NOTES: confirmatory screen; negative = inhibition
ENDPOINT: CONFIRMATORY SCREEN Efficacy (%)
Give just the numeric value; % need not be written.

Solved cases (3 shown):
• O=c1[nH]sc2cc(Cl)ccc12 [NCGC00262908-01, ticlatone, reference compound] = -50
• Cc1ccc(S(=O)(=O)Nc2cnccc2C(=O)Nc2nc(-c3ccc4c(c3)CCCC4)cs2)cc1.O=C(O)C(F)(F)F = -70
• Cc1ccc(S(=O)(=O)Nc2cnccc2C(=O)Nc2nc(-c3ccc(C)c(C)c3)cs2)cc1.O=C(O)C(F)(F)F = -70

Moving on to the next compound.
I'd like to know its CONFIRMATORY SCREEN Efficacy (%). The compound in question is `COc1nn(CSP(=S)(OC)OC)c(=O)s1`
-47
